Reported values of inhibition for individual entries
targetOrSystem: Death-associated protein kinase 1 (Homo sapiens) (UniProt P53355)
Sequence (P53355 whole entry, looked up): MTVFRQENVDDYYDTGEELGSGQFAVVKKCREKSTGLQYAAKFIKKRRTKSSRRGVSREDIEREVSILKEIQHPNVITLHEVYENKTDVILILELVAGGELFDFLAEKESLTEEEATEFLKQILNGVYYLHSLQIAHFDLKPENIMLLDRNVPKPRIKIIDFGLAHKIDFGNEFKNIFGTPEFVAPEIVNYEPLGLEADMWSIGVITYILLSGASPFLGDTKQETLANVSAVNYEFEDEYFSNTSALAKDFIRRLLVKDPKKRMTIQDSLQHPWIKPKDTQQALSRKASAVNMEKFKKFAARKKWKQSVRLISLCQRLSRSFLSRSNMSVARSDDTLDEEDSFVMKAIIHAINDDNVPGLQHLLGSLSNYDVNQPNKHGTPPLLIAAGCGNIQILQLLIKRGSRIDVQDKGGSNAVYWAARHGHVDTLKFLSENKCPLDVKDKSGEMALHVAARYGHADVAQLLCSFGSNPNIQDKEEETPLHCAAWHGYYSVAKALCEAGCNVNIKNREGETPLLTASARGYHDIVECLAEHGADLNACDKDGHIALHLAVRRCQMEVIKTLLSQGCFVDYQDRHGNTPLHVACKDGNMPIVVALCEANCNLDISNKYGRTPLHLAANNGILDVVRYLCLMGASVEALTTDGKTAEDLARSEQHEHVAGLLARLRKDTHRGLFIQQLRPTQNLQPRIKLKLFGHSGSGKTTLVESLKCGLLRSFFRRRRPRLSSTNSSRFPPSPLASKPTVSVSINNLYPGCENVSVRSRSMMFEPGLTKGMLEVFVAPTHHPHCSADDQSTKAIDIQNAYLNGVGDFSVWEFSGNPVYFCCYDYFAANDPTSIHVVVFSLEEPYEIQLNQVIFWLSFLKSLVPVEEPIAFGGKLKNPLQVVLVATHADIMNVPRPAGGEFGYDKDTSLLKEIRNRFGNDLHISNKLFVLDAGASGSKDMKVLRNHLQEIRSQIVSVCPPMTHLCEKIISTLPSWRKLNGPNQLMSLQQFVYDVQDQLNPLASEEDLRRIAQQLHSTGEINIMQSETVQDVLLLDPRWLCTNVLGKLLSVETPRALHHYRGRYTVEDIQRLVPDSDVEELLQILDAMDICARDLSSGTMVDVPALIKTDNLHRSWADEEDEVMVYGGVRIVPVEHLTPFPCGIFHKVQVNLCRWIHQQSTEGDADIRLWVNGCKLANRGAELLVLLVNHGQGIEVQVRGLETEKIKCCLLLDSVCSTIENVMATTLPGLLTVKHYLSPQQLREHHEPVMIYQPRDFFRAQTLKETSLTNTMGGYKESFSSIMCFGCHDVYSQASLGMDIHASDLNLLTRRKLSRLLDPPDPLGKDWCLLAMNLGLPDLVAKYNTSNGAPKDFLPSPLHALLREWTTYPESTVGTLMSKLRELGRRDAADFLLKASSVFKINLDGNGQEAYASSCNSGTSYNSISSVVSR
protocolSummary: Inhibition of DAPK1 at 10 uM
measurementKind: inhibition (%)

INSERT INTO results (entrysmiles, targetorsystem, measurementkind, measurementunit, recordednumber) VALUES
  ('O=C1OC(/C=C/c2ccccc2)=NC/1=C\c1cccnc1', 'Death-associated protein kinase 1 (Homo sapiens) (UniProt P53355)', 'inhibition', '%', 91),
  ('Cc1cccc(C2=N/C(=C\c3cccnc3)C(=O)O2)c1', 'Death-associated protein kinase 1 (Homo sapiens) (UniProt P53355)', 'inhibition', '%', 98),
  ('O=C1OC(c2ccccc2)=N/C1=C\c1cccnc1', 'Death-associated protein kinase 1 (Homo sapiens) (UniProt P53355)', 'inhibition', '%', 98),
  ('O=C1OC(c2ccc(F)c(F)c2)=N/C1=C\c1cccnc1', 'Death-associated protein kinase 1 (Homo sapiens) (UniProt P53355)', 'inhibition', '%', 97),
  ('O=C1OC(c2ccc(Cl)cc2)=N/C1=C\c1cccnc1', 'Death-associated protein kinase 1 (Homo sapiens) (UniProt P53355)', 'inhibition', '%', 76),
  ('Cc1cc(C2=N/C(=C\c3cccnc3)C(=O)O2)ccc1Br', 'Death-associated protein kinase 1 (Homo sapiens) (UniProt P53355)', 'inhibition', '%', 82);

====

targetOrSystem: Death-associated protein kinase 3 (Homo sapiens)
Sequence (O43293 whole entry): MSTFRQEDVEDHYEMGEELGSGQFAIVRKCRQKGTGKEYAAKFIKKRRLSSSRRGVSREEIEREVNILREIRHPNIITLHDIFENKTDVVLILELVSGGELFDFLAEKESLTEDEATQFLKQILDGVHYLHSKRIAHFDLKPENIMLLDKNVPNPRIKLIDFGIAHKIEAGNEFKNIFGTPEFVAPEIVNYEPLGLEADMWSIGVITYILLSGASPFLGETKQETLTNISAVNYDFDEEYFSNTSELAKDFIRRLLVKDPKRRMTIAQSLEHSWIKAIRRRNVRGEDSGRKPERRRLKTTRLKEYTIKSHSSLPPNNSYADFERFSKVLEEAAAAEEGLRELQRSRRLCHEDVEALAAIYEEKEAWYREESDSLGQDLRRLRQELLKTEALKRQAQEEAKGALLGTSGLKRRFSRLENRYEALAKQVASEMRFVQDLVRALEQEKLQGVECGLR
protocolSummary: Inhibition of human recombinant DAPK3
Entries whose IC50 is below 400 nM take true; entries at or above 400 nM take false.

INSERT INTO measurements (entrysmiles, class) VALUES
  ('COc1ccc(C2=N/C(=C\c3cccnc3)C(=O)O2)c(Br)c1', 'true'),
  ('Cc1cccc(C2=N/C(=C\c3cccnc3)C(=O)O2)c1', 'false'),
  ('O=C1OC(c2cccc(Cl)c2)=N/C1=C\c1cccnc1', 'true'),
  ('O=C1OC(c2ccc(Cl)c([N+](=O)[O-])c2)=N/C1=C\c1cccnc1', 'true'),
  ('Cc1cc(C2=N/C(=C\c3cccnc3)C(=O)O2)ccc1Br', 'true'),
  ('O=C1OC(c2ccc(F)c(F)c2)=N/C1=C\c1cccnc1', 'true'),
  ('O=C1OC(c2ccc(Cl)cc2)=N/C1=C\c1cccnc1', 'false'),
  ('Cc1ccc(C2=N/C(=C\c3cccnc3)C(=O)O2)cc1[N+](=O)[O-]', 'false'),
  ('O=C1OC(c2ccc([N+](=O)[O-])cc2)=N/C1=C\c1cccnc1', 'true'),
  ('O=C1OC(c2cccc(Br)c2)=N/C1=C\c1cccnc1', 'true'),
  ('O=C1OC(c2ccccc2)=N/C1=C\c1cccnc1', 'false'),
  ('O=C1OC(c2cc(I)ccc2Cl)=N/C1=C\c1ccncc1', 'true');

====

targetOrSystem: Tyrosine-protein kinase Fyn (Homo sapiens)
protocolSummary: Inhibition of FYN at 10 uM
Reported values of inhibition for individual entries
measurementKind: inhibition

INSERT INTO measurements (entrysmiles, result) VALUES
  ('O=C1OC(/C=C/c2ccccc2)=NC/1=C\c1cccnc1', '1%'),
  ('O=C1OC(c2ccccc2)=N/C1=C\c1cccnc1', '6%'),
  ('Cc1cc(C2=N/C(=C\c3cccnc3)C(=O)O2)ccc1Br', '9%'),
  ('O=C1OC(c2ccc(F)c(F)c2)=N/C1=C\c1cccnc1', '2%');
